Entries and their growth inhibition
- Assay method text: NCI Yeast Anticancer Drug Screen. Data for the mec2-1 strain (AID 157)
- Run conditions: S. cerevisiae mec2-1 strain, at 50.0 µM, active compounds read high
About 79,000 compounds went through this panel and 15% of them were active in at least one assay; those are over-represented in the sample as a whole.
# unit: % | format: bare number

O=S(=O)(NOCCCCONS(=O)(=O)c1ccccc1)c1ccccc1
17.6
Nc1ccc2c(c1)C1Oc3ccccc3CC1CO2 (configuration not stated)
6.55
N#Cc1n[nH]n(C2CCCCC2)c1=O
-12.8
CCC(=C(C#N)C#N)c1cc(OC)c(OC)c(OC)c1
-31.8
CC1=C(CO)C(=O)O[C@@H]([C@@H](C)[C@H]2CC[C@H]3[C@@H]4C[C@@H](O)[C@@]5(O)CC=CC(=O)[C@]5(C)[C@H]4CC[C@]23C)C1
-7.15
CC(=O)Nc1ccc(S(=O)(=O)SC(F)(F)F)cc1
7.25
CCCC(CC)C(=O)NC(N)=O (configuration not stated)
-5.9
[O-]c1on[n+](-c2ccccc2)c1CN1CCOCC1
-8.35
O=C(O)C(=O)C(=O)O
-41.8
CC1(C(=O)O)CCC2(C)CCC3(C)C(=CC(=O)C4C5(C)CCC(OC6OC(C(=O)O)C(O)C(O)C6OC6OC(C(=O)O)C(O)C(O)C6O)C(C)(C)C5CCC43C)C2C1 (configuration not stated)
3.95

Entry O=[N+]([O-])c1ccc2nc(/C=C(\O)c3ccccc3)c(NC34CC5CC(CC(C5)C3)C4)nc2c1 ; growth inhibition = -17.5

Documented growth inhibition of CCCCCCCCCCCCCC(=O)OCCCC : -54.4

Looking up CC(C)c1ccc(NC(=S)NCCO)cc1 , I see its growth inhibition listed as -4

###

- Assay method text: NCI Yeast Anticancer Drug Screen. Data for the mlh1 rad18 strain (AID 175)
- Run conditions: S. cerevisiae mlh1 rad18 strain growth inhibition; at 50.0 µM; active compounds read high
The panel holds about 79,000 compounds, 15% with a hit somewhere; the sample as a whole holds those more often.
Measured attribute: growth inhibition (%)
Write down the numeric answer in % and omit the unit.

Here is how some compounds turned out for growth inhibition.
CSc1cc(C)c(OC(=O)Nc2cc(C)ccc2C)c(C)c1
9.75
S=C1c2cc(Cl)ccc2NC(=NC2CCCC2)C2CSCN12 (stereo not given)
28.5

The reported growth inhibition of the compound CN(C)c1ccccc1C(=O)N/N=C/c1ccc(F)cc1 was -6

Please fill in: growth inhibition reported for C[NH-].C[NH-].C[NH-].C[NH-].O=C(O)c1cc(C(=O)O)c(C(=O)O)cc1C(=O)O.[Pt+2].[Pt+2] = 13.3

growth inhibition in this record for CN(C)Cc1c(C(O)(c2ccccc2)c2ccccc2)cc2ccccc2c1Cl : -10.4

###

- Assay method text: NCI Yeast Anticancer Drug Screen. Data for the sgs1 mgt1 strain (AID 161);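 note: 0% = growth of cultures given vehicle only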
- Run conditions: S. cerevisiae sgs1 mgt1 strain, at 50.0 µM, active compounds read high
About 79,000 compounds went through this panel and 15% of them were active in at least one assay; those are over-represented in the sample as a whole.
# growth inhibition annotations
// return numeric value only (unit: %, not printed)

Examples from the recorded data:
CCC(C)N=Cc1ccccc1O.CCC(C)N=Cc1ccccc1O.[Cu] (stereo not given)
28.4
Cc1ccc(Cl)cc1NC(=O)C(Br)C(Br)C(=O)O (stereo not given)
99.5
C[N+](C)(C)c1ccc2c(c1)CCC/C2=N\N
11.6

CC1=C(CO)C(=O)O[C@@H]([C@@H](C)[C@H]2CC[C@H]3[C@@H]4C[C@@H](O)[C@@]5(O)CC=CC(=O)[C@]5(C)[C@H]4CC[C@]23C)C1 yielded growth inhibition of -17.7

Item: O=[N+]([O-])c1ccc2oc(=Nc3ccccc3)c(Nc3ccccc3)nc2c1 | growth inhibition: -18.6

Quick note, growth inhibition for CCOC(=O)C(NC(=O)NC(C(=O)OCC)C(=O)OCC)C(=O)OCC landed at -6.55

Record summary for C1CSCCSCCCSC2CCCCC2SC1 (stereo not given) : reported growth inhibition = -8.35

Form: molecule = C=CCNC(=S)/N=C/c1c(C(=O)OCC)[nH]n(-c2ccccc2)c1=O ; growth inhibition = -44.8

Just so you know, measured growth inhibition for O=[N+]([O-])c1cccnc1Sc1ccccc1C1=NCCCN1 came out at -3.45

So, O=[N+]([O-])c1ccc(O)c(C=NCCCN=Cc2cc([N+](=O)[O-])ccc2O)c1 ? Its growth inhibition was -5

###

- Assay method text: NCI Yeast Anticancer Drug Screen. Data for the sgs1 mgt1 strain (AID 161);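 note: 0% = growth of cultures given vehicle only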
- Run conditions: S. cerevisiae sgs1 mgt1 strain, at 50.0 µM, active compounds read high
This is part of a sample that, as a whole, favours compounds with a hit. Of some 79,000 tested, about 15% had one in any assay.
# Lookup of reported growth inhibition keyed by entry
State just the number; it will be interpreted in %.

CCCC(C)NC(=O)c1ccc(Cl)c(Cl)c1 (configuration not stated)
13.1

The compound listed as CC1=CC(=O)CC2(C)CCC(C(C)CC(=O)CC(C)C)CC12 (configuration not stated) shows growth inhibition equal to 91

Record Cc1cccc2c1C(=O)C1(Cc3ccccc3C1=O)C2 (configuration not stated) , field growth inhibition: -15.1

###

- Assay method text: NCI Yeast Anticancer Drug Screen. Data for the cln2 rad14 strain (AID 165);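 note: 0% = growth equal to vehicle treated cultures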
- Run conditions: S. cerevisiae cln2 rad14 strain, at 50.0 µM, active compounds read high
This is part of a sample that, as a whole, favours compounds with a hit. Of some 79,000 tested, about 15% had one in any assay.
// growth inhibition lookup, one value per entry
A number alone suffices; assume %.

O=C(OCCO)c1ccccc1O
3.3
CC1(C)COC(C2(C)C(=O)C=C(c3ccccc3)c3ccccc32)=N1 (configuration not stated)
12.8
COc1ccc(OC)c(/C=C/c2ccccc2)c1
-24.8
CCCCNc1ccc2c(C)c(Cc3ccccc3)c(=O)oc2c1
2.35
O=C1COC(c2ccccc2O)=NN1CCCN1CCCC1
-3.4

growth inhibition reading for COc1ccc(/C=C/c2ccc3ccccc3n2)cc1 : -46.1

Noted for C1CCC2C3CCC(O3)C2C1 (configuration not stated) : its growth inhibition reads -33.7

###

The molecules listed here are annotated with their growth inhibition.
- Assay method text: NCI Yeast Anticancer Drug Screen. Data for the cln2 rad14 strain (AID 165);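 note: 0% = growth equal to vehicle treated cultures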
- Run conditions: S. cerevisiae cln2 rad14 strain, at 50.0 µM, active compounds read high
Compounds without any hit were thinned out: in the full panel of roughly 79,000, 15% have a hit.
Please reply with the bare figure in % and do not write the unit itself.

Solved entries:
Cc1ccc(S(=O)(=O)Nc2ccc(C(=O)Cl)cc2)cc1
6.9
CCCCCCCC(N)C(=O)O (stereo not given)
-26.2
COc1ccc(-c2c3c(nc4nc(SCC(=O)c5ccc(Br)cc5)nc(N)c24)CCCC3)cc1OC
-0.55
C[N+](C)([O-])CCCNc1ccnc2cccc([N+](=O)[O-])c12
8.4
COc1cc(OC)c(N=Nc2c(N)nc(N)[nH]c2=O)cc1Cl
-12.1

The molecule listed as O=C(Nc1cc2cc([N+](=O)[O-])ccc2oc1=O)c1cccs1 shows growth inhibition equal to 4.85

Form: molecule = O=C1/C(=C/c2ccccc2)CN(C(=O)CCN2CCOCC2)C/C1=C\c1ccccc1 ; growth inhibition = 31.6

Input N/N=C(/c1ccc(Cl)cc1)N1CCOCC1 . Output growth inhibition: -8.6

So, C=C1[C@@H]([C@@]2(C)C=CC(=O)C(C)(C)[C@@H]2CC(=O)OC)CC[C@@]2(C)C(c3ccoc3)OC(=O)[C@H]3O[C@]132 (stereo not given in full) ? Its growth inhibition was 15.5

For record CCN(CC)c1ccc(/C=C(\C)c2nc3ccc(Cl)cc3[nH]2)cc1 the listed growth inhibition is 7

###

Below, each entry is listed alongside its reported growth inhibition.
- Assay method text: NCI Yeast Anticancer Drug Screen. Data for the mlh1 rad18 strain (AID 175)
- Run conditions: S. cerevisiae mlh1 rad18 strain growth inhibition; at 50.0 µM; active compounds read high
The panel holds about 79,000 compounds, 15% with a hit somewhere; the sample as a whole holds those more often.
# value in %; strip the unit string

For orientation, consider the following solved cases.
CCCCCCCCCCCCCCCCOCC(COP(=O)(O)OCC1OC(n2cc(CC)c(=O)[nH]c2=O)CC1O)OC(=O)CCCCCCCCCCCCCCC (stereo unspecified)
-65
O=c1c2n(c(=O)c3n1CCC=3)CCC=2
9.35
O=CSC(=Nc1ccc(Cl)cc1)NC(=O)COc1ccc(Cl)cc1
12.3
CC1=C2CCOC2=Nc2ccccc2O1
-6.2
CCCCOC(=O)Nc1ccccc1OCC
-11.2

Pending compound:
Record COc1cc(C2CC(C)=C(C)CC2C(=O)O)cc(OC)c1OC (stereo unspecified) . Reported growth inhibition: 19.8

###

- Assay method text: NCI Yeast Anticancer Drug Screen. Data for the bub3 strain (AID 167)
- Run conditions: S. cerevisiae bub3 mutant strain, at 50.0 µM
- Description: Growth inhibition of yeast strains with defined genetic alterations is measured as a screen for potential anti-cancer activity. Selected strains with alterations in DNA damage repair or cell cycle control were exposed to compounds and growth inhibition was measured relative to vehicle treated controls. The strain used in this assay is bub3
Compounds without any hit were thinned out: in the full panel of roughly 79,000, 15% have a hit. Active and inactive are the calls of the source. Cut-off read from the data, not from the text of the source: active = growth inhibition above about 70%; inactive = the rest.
Outcomes you can answer with include only these: active, inactive

**Query** Recorded test call requested for S=C(S)N(Cc1ccccc1)Cc1ccccc1 (tested in a mixture with another compound)
**Result** inactive

**Query** What did the test return for c1cnc(NC(Nc2cnccn2)C2CCCCC2)cn1 ?
**Result** inactive

**Query** Outcome logged for CCOC(=O)C(NC(=O)c1cccc(Cl)c1)(Nc1ccc(S(=O)(=O)Nc2cc(C)on2)cc1)C(F)(F)F (stereo not given) in this assay:
**Result** active

**Query** Could you check what this test reported for CCOC(=O)c1cn(C)c2c1C(=O)C(C(=O)OCC)CCN2C(=O)OCC (stereo not given) ?
**Result** inactive

**Query** Hi, sorry to bother you, what did the test record for O=c1[nH]cnc2nc(N3CCN(c4ccccc4)CC3)sc12 ?
**Result** inactive

This collection of values is drawn from PubChem BioAssay (NCI).
